testSystem: T1, PUF4 RNA-binding domain (Saccharomyces cerevisiae, UniProt P25339 537-888)
T1 sequence: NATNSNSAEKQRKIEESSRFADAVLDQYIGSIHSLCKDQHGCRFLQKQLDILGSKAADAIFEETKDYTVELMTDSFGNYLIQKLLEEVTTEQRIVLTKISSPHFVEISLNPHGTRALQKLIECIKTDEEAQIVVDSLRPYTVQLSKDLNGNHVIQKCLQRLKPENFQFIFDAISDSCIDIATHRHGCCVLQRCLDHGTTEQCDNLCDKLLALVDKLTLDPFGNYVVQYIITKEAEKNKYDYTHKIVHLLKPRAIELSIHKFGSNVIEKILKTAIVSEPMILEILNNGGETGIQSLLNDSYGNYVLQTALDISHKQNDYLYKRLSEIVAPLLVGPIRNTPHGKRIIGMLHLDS
method: Mg; RNA-MaP; 20 mM Na-HEPES pH 7.4, 30 mM KOAc, 0.75 mM MgCl2, 0.1% Tween-20, 5% glycerol, 0.1 mg/mL BSA, 2 mM DTT; 25 C; 0.0125-409.6 nM protein
studyConditions: tags: N-His6-TEV cleaved; C-SNAP kept, Cy3B-labelled; label: tethered on chip by stalled RNA polymerase
pKd: −log10 of the molar value.
Binning rule for recorded pKd: group A: < 7; group B: ≥ 7 and < 8; group C: ≥ 8

binder	class
ACAAACUGUCUUUAACAAAC (ssRNA) [Ib_S3_P3E.1_K3.1_C3.1_H3.1_[A4C]_A3.1_[A6T]_F3.1_T3.1]	group A
Ic_S2_P4E.1_K4.1_C4.1_H4.1_A4.1_[A6G]_[T7C]_F4.1_[T8C]_[A9T]_T4.1 (ssRNA) RNA: UUUGAUUAAUAUGAUAUCGUUCUUUCUUGUAUGCCUUUCUUUCUCGAUAUCAUAUUAAUCUUU	group A
Ib_S4_P4E.1_K4.1_C4.1_H4.1_[A4C]_A4.1_[T7A]_F4.1_T4.1 (ssRNA) RNA: UUUGACAACUGAUCGUUCUUUCUUGUCUAAUAUUCUUUCUCGAUCAGUUGUCUUU	group B
UCUCUUUCCCUUGUAUUAUUAUCUCUU (ssRNA) [Ie_S1_P5E.1_K5.1_C5.1_H5.1_[+1CCCTT]_A5.1_F5.1_T5.1]	group C
Ib_S4_P4E.1_K4.1_C4.1_H4.1_A4.1_[A6C]_[T7C]_F4.1_T4.1 (ssRNA) RNA: UUUGACAACUGAUCGUUCUUUCUUGUAUCCUAUUCUUUCUCGAUCAGUUGUCUUU	group C
Id_ii_S2_P3E.3_K3.2_C3.2_[C-2A]_H3.2_A3.1_F3.1_T3.2_[T9C]_[A10T] (ssRNA) RNA: UUUGAUUAAUAUGAUAUCGUUCUUUCUAUUAUAUAUACUUUCUUUCUCGAUAUCAUAUUAAUCUUU	group A
